Reported IC50 is given for each of the following compounds.
test: Inhibition of gp120 in HIV-1 subtype B #11578 harboring pseudotyped Env pWEAUd15.410.5017 infected in human TZM-bl cells assessed as reduction in viral infection pretreated for 30 mins before viral infection and measured after 3 days by luciferase based single cycle infection assay

Prompt: Can you share its IC50? I mean this compound: O=C(NC1(c2nc(CO)cs2)CCNCC1)c1ccc(-c2ccc(C(F)(F)F)cc2)[nH]1
Response: 11.4 µM

Prompt: Same for NC[C@@H](NC(=O)c1ccc(NCC2CCCCC2)cc1)c1ncc(CO)s1
Response: > 15 µM

Prompt: Cc1nc([C@@H](CN)NC(=O)NC(=O)c2ccc(Cl)cc2)sc1CO , same question.
Response: > 54 µM

Prompt: Try the compound NC[C@H](NC(=O)C(=O)NCc1ccc(Cl)c(F)c1)c1ncc(CO)s1
Response: > 15 µM

Prompt: Would you kindly repeat that for Cc1nc([C@H](CN)NC(=O)C(=O)Nc2ccc(Cl)cc2)sc1CO ?
Response: > 27 µM
